system: LXFL 529; test: NCI tumour cell line growth inhibition, 48 h
The source made the active and inactive calls. Cut-off read from the data, not from the text of the source: active = GI50 up to about 1.1 µM and inactive = higher.
Outcomes: active, inactive

>>> class_label("C/C(=N\\NC(N)=S)c1cc(C)c(C)cc1C")
"inactive"
>>> class_label("CC1(C)N=C(c2ccccn2)C(c2ccccn2)=NC1(C)C")
"inactive"
>>> class_label("COc1cc(CCCC(O)COc2cccc3c2C2(O)CCCCCC32)cc(OC)c1 (stereo not drawn)")
"inactive"
>>> class_label("CN1C(=O)C(C)(C)C2(SC(C)(C)C2(C)C)N(C)C1=S (stereo not drawn)")
"inactive"
>>> class_label("O=C1NC(=O)C2C1c1[nH]c3ccccc3c1C1CCCC12 (stereo not drawn)")
"inactive"
>>> class_label("CC(C)(C)[C@H]1CO[C@]2(c3ccccc3)[C@@H]3C[C@@H]3C(=O)N12")
"inactive"
>>> class_label("CSC(=Nc1nnc(-c2ccc([N+](=O)[O-])cc2)s1)SC")
"inactive"
>>> class_label("O=S1(=O)CCC2=CC(C(F)(F)F)=CC(C(F)(F)F)=CN21")
"active"
